- System Under Test: T1, human VEGFA165 (human, UniProt P15692-4 27-191)
- T1 construct: Bought protein from two suppliers, treated as one molecule; the supplier is named under assay; also called antigen VEGFA
- T1 sequence (P15692 other isoform, or with tags, fused parts or gaps limits assumed): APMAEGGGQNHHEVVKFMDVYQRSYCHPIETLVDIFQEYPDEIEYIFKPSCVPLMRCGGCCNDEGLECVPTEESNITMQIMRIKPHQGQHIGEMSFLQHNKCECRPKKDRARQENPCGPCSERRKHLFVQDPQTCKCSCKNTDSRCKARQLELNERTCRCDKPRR
- Assay Method Text: ELISA, coated human VEGFA165, anti-His detection
Observed Property: pEC50
Keep it numeric: pEC50 is minus log10 of the concentration in mol/L.

>>> reported_value("2V15-20S (VHH, Tandem bivalent nanobody) QLQLVESGGGSVQPGGSLRLSCEVSGRTFASYTMGWFRQAPGKEREFVVAISKGGYKYDSVSLEARFTISKDNTKNTVYLQMNSLKPEDTAVYYCAGTRAYGSSRLRLAETYEYWGQGTQVTVSSSSSSSSSSSSSSSSSSSSSSQLQLVESGGGSVQPGGSLRLSCEVSGRTFASYTMGWFRQAPGKEREFVVAISKGGYKYDSVSLEARFTISKDNTKNTVYLQMNSLKPEDTAVYYCAGTRAYGSSRLRLAETYEYWGQGTQVTVSS")
9.37

Please examine the following record next.
Input line: Can you look up the measured pEC50 of 2V1-EAAAK-Turn (VHH, Tandem bivalent nanobody) QLQLVESGGGSVQPGGSLRLSCEVSGRTFSSYTMGWFRQAPGKEREFVVAISKGGYKYDSVSLEARFTISKDNTKNTVYLQMNSLKPEDTAVYYCAATRAYGSSRLRLADTYEYWGQGTQVTVSSPDSEAAAKEAAAKEAAAKEAAAKEAAAKPDGSSQLQLVESGGGSVQPGGSLRLSCEVSGRTFSSYTMGWFRQAPGKEREFVVAISKGGYKYDSVSLEARFTISKDNTKNTVYLQMNSLKPEDTAVYYCAATRAYGSSRLRLADTYEYWGQGTQVTVSS for me?
Output line: 9.51
